- Tested on: WM1552C (Melanoma);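 also: after 72 h of two-drug dosing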
- experimental_protocol: Bliss excess, mean over the matrix (fraction); higher = more synergy
Recorded Bliss excess, one value per entry.
Hey, just send me the number, nothing else.

Here are 2 compounds together with their reported answers.
compound: CC(=O)c1c(C)c2cnc(Nc3ccc(N4CCNCC4)cn3)nc2n(C2CCCC2)c1=O [Palbociclib] + CC1(C)CCC(CN2CCN(c3ccc(C(=O)NS(=O)(=O)c4ccc(NCC5CCOCC5)c([N+](=O)[O-])c4)c(Oc4cnc5[nH]ccc5c4)c3)CC2)=C(c2ccc(Cl)cc2)C1 [Venetoclax] (first compound max 10 µM, 7x7, partner max 1 µM)
Bliss excess: -0.0334
--
compound: NC1(C(=O)N[C@@H](CCO)c2ccc(Cl)cc2)CCN(c2ncnc3[nH]ccc23)CC1 [Capivasertib] + CC(=O)c1c(C)c2cnc(Nc3ccc(N4CCNCC4)cn3)nc2n(C2CCCC2)c1=O [Palbociclib] (first compound max 10 µM, 7x7, partner max 10 µM)
Bliss excess: 0.0025

Now for the compound whose Bliss excess we want.
Record CCN(CCO)CCCOc1ccc2c(Nc3cc(CC(=O)Nc4cccc(F)c4)[nH]n3)ncnc2c1 [AZD2811] + C[C@@H]1COCCN1C2=NC(=NC(=C2)C3(CC3)[S@](=N)(=O)C)C4=C5C=CNC5=NC=C4 [AZD6738] (first compound max 1 µM, 7x7, partner max 10 µM) . Reported Bliss excess: -0.0468
